tested on: RPMI-8226 leukemia; assay: NCI-60 one-dose screen, 48 h (100 = growth as untreated, 0 = no growth, -100 = all killed); conditions: 10 µM unless noted
This is part of a sample that, as a whole, favours compounds with a hit. Of some 83,000 tested, about 20% had one in any assay.
Threshold 70%. growth below it: yes. growth at it or above: no.

compound=Nc1ccc2c(c1)c(N)nn2C(=O)Nc1ccc(Cc2ccccc2)cc1 assigned_category=yes
compound=Cc1ccc(/C=C/c2c(C(=O)/C=C/c3ccc(C(F)(F)F)cc3)c(C)nc3ccccc23)cc1 assigned_category=yes
compound=O=C(/C=C/c1c(Cl)nc2sccn12)c1nccs1 assigned_category=no
compound="CC1=CN2C(=O)C3C4=C(CCCC4)SC3N=C2CN1c1c(C)cccc1C (stereo not given)" assigned_category=yes
compound=N#Cc1c(-c2ccccc2)cc(-c2ccc(Nc3nc(Nc4ccc(F)cc4)nc(Nc4ccc(F)cc4)n3)cc2)nc1N assigned_category=yes
compound=C=C(C)[C@@H]1CC[C@]2(C(=O)NC3CCCCC3)CC[C@]3(C)[C@H](CC[C@@H]4[C@@]5(C)CCC(=O)C(C)(C)[C@@H]5CC[C@]43C)[C@@H]12 assigned_category=no
compound=CN(C)CCCn1c(=O)c2ccccc2c2ccccc21 assigned_category=yes
compound=COc1ccc(C(=O)COc2ccc(/C=C3\Oc4ccccc4C3=O)cc2)cc1 assigned_category=no
compound=CCN1CCN(c2nc(C)cc(NCc3cc(Nc4ccnc5cc(Cl)ccc45)ccc3F)n2)CC1 assigned_category=yes
compound=CC/C=C1/C(=O)C=C[C@@H]1C/C=C\CCCC(=O)O assigned_category=yes
compound=Cc1cccc(NC(=O)CSc2nc3ccccc3[nH]2)c1 assigned_category=no
compound=c1coc(-c2c3ccc(=[N+]4CCCCC4)cc-3oc3cc(N4CCCCC4)ccc23)c1 assigned_category=yes
compound=O=C(O)c1ccc2c(c1Cl)C(=O)c1ccccc1C2=O assigned_category=no
compound=COc1ccc(-c2csc(C3=C(O)CN(C(C)C)C3=N)n2)cc1OC assigned_category=yes
compound=COc1cccc(C(=O)NCCCNc2cc(-c3cn(-c4ccccc4)nc3-c3cccc(OC)c3)ccn2)c1 assigned_category=yes
compound=CC(=O)c1ccc(NCC(=O)Nc2ccccn2)cc1 assigned_category=no
compound=COc1ccc(NC(=O)c2nc(-c3cc(OC)c(OC)c(OC)c3)n(-c3cccc4ccccc34)n2)cc1OC assigned_category=yes
compound=CC(C)(C)c1ccc(/C=C/C(=O)Nc2ccc(O)cc2)cc1 assigned_category=yes
compound=Cc1c2c(c(C)c3c1oc1cc(O)ccc13)C(=O)N(CCN1CCCCC1)C2=O assigned_category=no

* * *

test system: NCI-H322M lung; test: NCI-60 one-dose screen, 48 h (100 = growth as untreated, 0 = no growth, -100 = all killed); details: 10 µM unless noted
This is part of a sample that, as a whole, favours compounds with a hit. Of some 83,000 tested, about 20% had one in any assay.
Rule: YES for growth not less than 70%, NO for anything less.

compound=C=C(C)[C@@H]1CC[C@]2(C(=O)NC3CCCCC3)CC[C@]3(C)[C@H](CC[C@@H]4[C@@]5(C)CCCNC(C)(C)[C@@H]5CC[C@]43C)[C@@H]12 assigned_category=NO
compound=Cc1ccc2c(c1)Sc1c(ccc3ccccc13)N2 assigned_category=YES
compound=COc1ccc2[nH]c(O)c(C(=Nc3ccc(N(C)C(=O)CN4CCN(C)CC4)cc3)c3ccccc3)c2c1 assigned_category=NO
compound="CC1=C([Se]CC(OC(=O)CC[Se]c2ccccc2)C(=O)NCCCCCC(=O)OCc2ccccc2)C(=O)c2ccccc2C1=O (stereo not drawn)" assigned_category=NO
compound="COc1cc2c(cc1-c1c(C)noc1C)ncc1nc(C3CCCCC3)n(C3CCC(OC(F)F)CC3)c12 (stereo not drawn)" assigned_category=NO
compound=CCCCCc1nc2c(c3c1CCCC3)CCCC2 assigned_category=YES
compound="Cc1ccc(-c2cc3c(cc2O)C2CCCCC2(N2CCOCC2)O3)cc1 (stereo not drawn)" assigned_category=YES
compound=C[C@H]1[C@H]2[C@H]3CC[C@@H]4[C@@]5(C)C/C(=C/c6ccco6)C(=O)C(C)(C)[C@@H]5CC[C@@]4(C)[C@]3(C)CC[C@]23CO[C@]1(C)[C@@H](C(=O)/C=C\c1ccco1)C3 assigned_category=YES

* * *

system: SW-620 colon; assay: NCI-60 one-dose screen, 48 h (100 = growth as untreated, 0 = no growth, -100 = all killed); details: 10 µM unless noted
This is part of a sample that, as a whole, favours compounds with a hit. Of some 83,000 tested, about 20% had one in any assay. Activity calls are given as the source filed them. How the source made its calls: active means growth percent below 10; inactive means the rest.
measured endpoint: growth

molecule="Cc1nc2ccccc2n1CC1NC(=O)NC1=O (stereo not given)" value="97.6% (inactive)"
molecule=COc1cc(N2C(=O)c3nccnc3C2=O)cc(OC)c1OC value="104% (inactive)"
molecule=Cc1nc2ccccc2c(/C=C/c2ccc(Cl)cc2)c1C(=O)/C=C/c1ccc(F)cc1 value="-19.6% (active)"
molecule=CC/C=C\CCC/C=C1/C(=O)C=C[C@@H]1C/C=C\CCCC(=O)O value="9.71% (active)"
molecule=CCN(CC)CCN1CC(O)=C(c2nc(-c3ccc(Cl)cc3)cs2)C1=N value="-56.2% (active)"
molecule="COc1cc2c(cc1-c1c(C)noc1C)ncc1nc(C3CCCCC3)n(C3CCC(OC(F)F)CC3)c12 (stereo not given)" value="58.3% (inactive)"
molecule=COc1ccc2oc3c(C)c4c(c(C)c3c2c1)C(=O)N(Cc1ccccc1)C4=O value="78.3% (inactive)"
molecule=O=c1c2cc(F)ccc2sc2c(NCCN3CCCCC3)nc3ccccc3c12 value="29.1% (inactive)"
molecule=Cc1ccc(C(=NN=C(N)N)c2ccc(C)cc2)cc1 value="28.4% (inactive)"
molecule="COc1ccc(C2CC(c3cccc(OC)c3)=NN2C(=O)c2cc(OC)c(OC)c(OC)c2)cc1 (stereo not given)" value="22.5% (inactive)"
molecule=CCCCCc1nc2c(c3c1CCCC3)CCCC2 value="89.9% (inactive)"
molecule=Cc1cc(NCCCCNc2ccnc3cc(Cl)ccc23)nc(Nc2ccc(C(=O)N3CCCCC3)cc2)n1 value="-70.2% (active)"
molecule=COc1ccc(-c2cc(-c3cc(OC)ccc3OC)nc(SCC(=O)c3ccccc3)c2C#N)cc1 value="98.6% (inactive)"
molecule=CCOc1ccccc1-c1cc(-c2cccs2)c(C#N)c(=O)[nH]1 value="80.9% (inactive)"
molecule=O=C1OC(c2nc3ccccc3s2)=C/C1=C\c1ccc(O)cc1 value="94.4% (inactive)"
molecule=COc1cc2nc(Cl)nc(Nc3ccc(S(=O)(=O)Nc4nccs4)cc3)c2cc1OC value="105% (inactive)"
molecule="CC(=O)OC[C@H]1OC(Sc2sc(C(=O)c3ccc(Br)cc3)c(N)c2-c2nc3ccccc3s2)[C@H](OC(C)=O)[C@@H](OC(C)=O)[C@@H]1OC(C)=O (stereo not given in full)" value="54% (inactive)"
molecule=COC(=O)[C@]12CC[C@@H](C)[C@H](C)[C@@H]1C1=CC[C@@H]3[C@@]4(C)C(C=O)=C[C@@](C)(COS(C)(=O)=O)[C@@H]4C(=O)C[C@@]3(C)[C@]1(C)CC2 value="35.9% (inactive)"
molecule="CCN1C(=O)N(CC)C2Nn3c(s/c(=C\\c4cccc([N+](=O)[O-])c4)c3=O)=NC21 (stereo not given)" value="36.4% (inactive)"
molecule=CCCCCCCCCCCCCCCCCCOc1ccc(CC(=O)OCC[N+]2(C)CCCC2)cc1 value="95% (inactive)"

* * *

tested on: EKVX NSCLC; assay: NCI-60 one-dose screen, 48 h (100 = growth as untreated, 0 = no growth, -100 = all killed); details: 10 µM unless noted
This is part of a sample that, as a whole, favours compounds with a hit. Of some 83,000 tested, about 20% had one in any assay. The source made the active and inactive calls. Rule for the calls: active = growth percent below 10; inactive = the rest.
Here, each record is paired with measured growth data.
measured endpoint: growth

compound="Cc1cc(O)c(C2=NN(c3ccc(S(N)(=O)=O)cc3)C(c3ccccc3Cl)C2)cc1Cl (centres undefined)" value="-1.91% (active)"
compound=COc1cc(-c2nn(-c3ccccc3)cc2-c2ccnc(NCCNS(=O)(=O)c3ccc(Cl)cc3)n2)ccc1Cl value="37% (inactive)"
compound=CC(C)=C[C@@H]1c2c(c3ccccc3n(C)c2=O)O[C@H]2c3c(c4ccccc4n(C)c3=O)OC(C)(C)[C@@H]12 value="90.9% (inactive)"
compound=O=C(NCCCNc1cc(-c2cn(-c3ccccc3)nc2-c2cccc(O)c2)ccn1)c1ccccc1 value="47.6% (inactive)"
compound=N#Cc1c(N)nn(C(=O)c2ccc(NC(=O)c3ccccn3)cc2)c1-c1ccc(Cl)cc1 value="49.2% (inactive)"
compound=Cn1cc2c(c1)-c1nc(Nc3ccccc3)ncc1CC2 value="54.6% (inactive)"
compound=Cc1cc(=O)oc2c1ccc1oc(C#N)c(C)c12 value="93.7% (inactive)"
compound=CCOC(=O)c1ccc(N2NC(=O)/C(=C/c3ccc([N+](=O)[O-])o3)C2=O)cc1 value="111% (inactive)"
compound="CC1OC(O[C@H]2/C=C/C=C/C=C/C=C/C=C/C=C/C=C/[C@H](C)[C@@H](O)[C@@H](C)[C@H](C)OC(=O)CC(O)CC(O)CCC(O)C(O)CC(O)C[C@]3(O)C[C@H](O)C(C(=O)O)C(C2)O3)C(O)[C@H](N)C1O (some centres undefined)" value="-14.3% (active)"

Data provenance: PubChem BioAssay (NCI)
